Test system: Escherichia coli TOP10
Assay: shrunken log2 fold change of peptide-encoding DNA abundance (4.5 h post-induction vs induction); higher = less antimicrobial activity (less host growth inhibition)
Conditions: time post-induction: 4.5 h; library: site-saturation at positions 5, 18, 19, 20
Task for the reader: assign each of the following sequences its reported shrunken log2 fold change.
Answers are plain numbers.

RRIRSRPPRLPRPRPRPTVDPRP	0.16
RRIRSRPPRLPRPRPRPWAWPRP	-0.131
RRIRMRPPRLPRPRPRPPGRPRP	0.849
RRIRTRPPRLPRPRPRPHTFPRP	-0.431
RRIRMRPPRLPRPRPRPIHDPRP	0.0367
RRIRTRPPRLPRPRPRPHYDPRP	-0.302
RRIRHRPPRLPRPRPRPDRTPRP	0.0869
RRIRNRPPRLPRPRPRPCMPPRP	-0.549

State recorded shrunken log2 fold change for all listed sequences.
1. RRIRKRPPRLPRPRPRPGPWPRP
2. RRIRPRPPRLPRPRPRPKSAPRP
3. RRIRIRPPRLPRPRPRPEYHPRP

Ans:
1: 0.63; 2: 0.532; 3: -0.152

----------
System: Escherichia coli TOP10
Experiment: shrunken log2 fold change of peptide-encoding DNA abundance (4.5 h post-induction vs induction); higher = less antimicrobial activity (less host growth inhibition)
Conditions: time post-induction: 4.5 h; library: site-saturation at positions 5, 18, 19, 20
Task for the reader: assign each of the following sequences its reported shrunken log2 fold change.
Answers are plain numbers.

// worked examples, shrunken log2 fold change included
RRIRVRPPRLPRPRPRPLVDPRP	-0.196
RRIRVRPPRLPRPRPRPTIQPRP	-0.526
RRIRERPPRLPRPRPRPWHSPRP	-0.252

State recorded shrunken log2 fold change for all listed sequences.
1. RRIRHRPPRLPRPRPRPIVFPRP
2. RRIRYRPPRLPRPRPRPCAEPRP

Ans:
1: -0.103; 2: -0.835

State recorded shrunken log2 fold change for all listed sequences.
1. RRIRMRPPRLPRPRPRPQLEPRP
2. RRIRERPPRLPRPRPRPTCIPRP
3. RRIRFRPPRLPRPRPRPWTWPRP
4. RRIRWRPPRLPRPRPRPLSFPRP
5. RRIRHRPPRLPRPRPRPDALPRP
6. RRIRWRPPRLPRPRPRPLHYPRP
7. RRIRDRPPRLPRPRPRPGMSPRP

Ans:
1: 0.0634; 2: -0.23; 3: 0.0306; 4: -0.0327; 5: 0.227; 6: -0.369; 7: 0.0134

State recorded shrunken log2 fold change for all listed sequences.
1. RRIRGRPPRLPRPRPRPTMCPRP
2. RRIRYRPPRLPRPRPRPFTIPRP

Ans:
1. 0.805
2. -0.00992

State recorded shrunken log2 fold change for all listed sequences.
1. RRIRRRPPRLPRPRPRPYDDPRP
2. RRIRERPPRLPRPRPRPHHSPRP
3. RRIRLRPPRLPRPRPRPAAAPRP
4. RRIRMRPPRLPRPRPRPPDMPRP

Ans:
1: -0.577; 2: -0.603; 3: 1.04; 4: 1.06

----------
Task for the reader: assign each of the following sequences its reported shrunken log2 fold change.
Tested on: Escherichia coli TOP10;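 note: peptides expressed intracellularly from a pBAD plasmid library in pooled LB shake-flask culture, induced with 0.3% L-arabinose, DNA abundance read by NGS, three biological replicates, DESeq2 with apeglm shrinkage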
Experiment: shrunken log2 fold change of peptide-encoding DNA abundance (4.5 h post-induction vs induction); higher = less antimicrobial activity (less host growth inhibition)
Details: time post-induction: 4.5 h; library: site-saturation at positions 5, 18, 19, 20
Answers are plain numbers.

// worked examples, shrunken log2 fold change included
RRIRDRPPRLPRPRPRPMVQPRP	-0.00146
RRIRIRPPRLPRPRPRPGGEPRP	-0.063
RRIRERPPRLPRPRPRPMCSPRP	-0.00794
RRIRNRPPRLPRPRPRPGIDPRP	-0.042
RRIRPRPPRLPRPRPRPQNTPRP	-0.407

State recorded shrunken log2 fold change for all listed sequences.
1. RRIRPRPPRLPRPRPRPASPPRP
2. RRIRHRPPRLPRPRPRPYNQPRP
3. RRIRYRPPRLPRPRPRPPCMPRP
4. RRIRYRPPRLPRPRPRPRVRPRP
5. RRIRYRPPRLPRPRPRPEEDPRP
6. RRIRGRPPRLPRPRPRPVKQPRP

Ans:
0.287
-0.342
-0.315
0.175
-0.0024
0.216

State recorded shrunken log2 fold change for all listed sequences.
1. RRIRSRPPRLPRPRPRPNIAPRP
2. RRIRYRPPRLPRPRPRPSRRPRP
3. RRIRCRPPRLPRPRPRPEGWPRP
4. RRIRWRPPRLPRPRPRPVPSPRP
5. RRIRERPPRLPRPRPRPVNWPRP
6. RRIRTRPPRLPRPRPRPRARPRP
7. RRIRERPPRLPRPRPRPSWQPRP
8. RRIRMRPPRLPRPRPRPPYTPRP

Ans:
1: 0.0275; 2: 0.0397; 3: 0.855; 4: 0.058; 5: -0.0528; 6: 0.63; 7: -0.00861; 8: -0.0678
